# Assay System: CCK receptors (Cavia porcellus)
# Construct: cortex and pancreas were removed and rinsed with ice-cold saline; from tissue; host or cells: guinea pig cerebral cortex membranes
# Experiment Description: [125I]BH-CCK8 radioligand binding, guinea pig cerebral cortical membranes
# Assay Conditions: 30°C for 150 min, read-out: IC₅₀ (nM) [¹²⁵I]-BH-CCK₈ Cortex
Counter-ions that a name gives are not always drawn.
Measurement Kind: IC50 (nM)
One number for each entry, in nM.

The cases that follow already have their IC50 on record.
INSERT INTO results (compound, number) VALUES
  ('CCOC(=O)CN(Cc1ccccc1)C(=O)[C@@H](Cc1c[nH]c2ccccc12)NC(=O)c1cc2ccccc2[nH]1 [Example 28]', 10000),
  ('CCCCCN(CCCCC)C(=O)[C@H](Cc1c[nH]c2ccccc12)NC(=O)c1cnc2ccccc2c1 [Example 100]', 6300);

Hi! Can you tell me IC50 for each of these compounds?
1. CCCCCN(CCCCC)C(=O)C(Cc1c[nH]c2ccc(F)cc12)NC(=O)c1cc2ccccc2[nH]1 (racemic) [Example 64]
2. CCCCCN(CCCCC)C(=O)[C@@H](CC1C(=O)Nc2ccccc21)NC(=O)c1cnc2ccccc2c1 (some centres unmarked) [Example 69]
3. CCCCCN(CCCCC)C(=O)[C@@H](Cc1c[nH]c2ccccc12)NC(=O)c1cnc2ccccc2c1 [Example 117, mesylate salt]
4. COC(=O)[C@@H](NC(=O)[C@@H](Cc1c[nH]c2ccccc12)NC(=O)c1cc2ccccc2[nH]1)c1ccccc1 [Example 25]
5. C[C@@H](NC(=O)C(Cc1c[nH]c2ccccc12)NC(=O)c1cc2ccccc2[nH]1)c1ccccc1 (some centres unmarked) [Example 18]

output:
10000
4100
13000
10000
10000

Hi! Can you tell me IC50 for each of these compounds?
1. CCCCCN(CCCCC)C(=O)[C@@H](Cc1c[nH]c2ccccc12)NC(=O)c1cnc2ccccc2c1 [Example 21]
2. CN(Cc1ccccc1)C(=O)C(Cc1c[nH]c2ccccc12)NC(=O)c1cnc2ccccc2c1 (centres unmarked) [Example 33]
3. CCOC(=O)CN(Cc1ccccc1)C(=O)[C@@H](Cc1c[nH]c2ccccc12)NC(=O)c1cnc2ccccc2c1 [Example 29]
4. O=C(NC(Cc1c[nH]c2ccccc12)C(=O)N1CCC2CCCCC2C1)c1cnc2ccccc2c1 (centres unmarked) [Example 40]

output:
1: 15000; 2: 10000; 3: 9200; 4: 10000

---

Would you kindly list IC50 for each of these compounds?
# Assay System: CCK receptors (Cavia porcellus)
# Construct: cortex and pancreas were removed and rinsed with ice-cold saline; from tissue; host or cells: guinea pig pancreas membranes
# Sequence (Q63931 1-430): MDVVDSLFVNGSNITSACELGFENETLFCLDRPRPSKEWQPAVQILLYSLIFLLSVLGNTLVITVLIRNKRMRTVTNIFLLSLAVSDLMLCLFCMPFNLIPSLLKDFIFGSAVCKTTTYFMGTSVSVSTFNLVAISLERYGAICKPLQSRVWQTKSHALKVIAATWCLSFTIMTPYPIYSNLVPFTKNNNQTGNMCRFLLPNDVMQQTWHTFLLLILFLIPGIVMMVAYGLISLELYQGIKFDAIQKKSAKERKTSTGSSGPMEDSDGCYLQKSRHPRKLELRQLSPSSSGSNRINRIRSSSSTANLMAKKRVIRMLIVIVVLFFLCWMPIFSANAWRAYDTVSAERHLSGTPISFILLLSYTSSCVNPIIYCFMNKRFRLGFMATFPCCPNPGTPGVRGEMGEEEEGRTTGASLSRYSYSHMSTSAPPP
# Experiment Description: Inhibition of CCK8-stimulated amylase release from guinea pig pancreatic acini
# Assay type: cell-based
# Assay Conditions: reference concentration for CCK₈ 3x10⁻¹⁰M, 37°C, 30 min, read-out: IC₅₀ (nM) Inhibition of Amylase Release

INSERT INTO assay_data (compound, assay_system, result) VALUES
  ('C[C@@H](NC(=O)[C@@H](Cc1c[nH]c2ccccc12)NC(=O)c1cnc2ccccc2c1)c1ccccc1 [Example 39]', 'CCK receptors (Cavia porcellus)', '< 10000 nM'),
  ('O=C(N[C@H](Cc1c[nH]c2ccccc12)C(=O)NCc1ccccc1)c1cnc2ccccc2c1 [Example 7]', 'CCK receptors (Cavia porcellus)', '< 30000 nM'),
  ('CCCCCN(CCCCC)C(=O)C(Cc1c[nH]c2ccccc12)NC(=O)C=Cc1cccnc1 (stereo not shown) [Example 54]', 'CCK receptors (Cavia porcellus)', '< 100000 nM');

Hi! Can you tell me IC50 for each of these compounds?
1. CCCCCN(CCCCC)C(=O)[C@@H](Cc1c[nH]c2ccccc12)NC(=O)c1ccc2ncccc2c1 [Example 97]
2. CCOC(=O)CN(Cc1ccccc1)C(=O)[C@@H](Cc1c[nH]c2ccccc12)NC(=O)c1cc2ccccc2[nH]1 [Example 28]
3. CN(Cc1ccccc1)C(=O)C(Cc1c[nH]c2ccccc12)NC(=O)c1cnc2ccccc2c1 (stereo not shown) [Example 33]
4. C[C@H](NC(=O)C(Cc1c[nH]c2ccccc12)NC(=O)c1cc2ccccc2[nH]1)c1ccccc1 (stereo partly shown) [Example 19]

output:
["< 100000 nM", "< 10000 nM", "< 30000 nM", "< 10000 nM"]

---

# Assay System: CCK receptors (Cavia porcellus)
# Construct: cortex and pancreas were removed and rinsed with ice-cold saline; from tissue; host or cells: guinea pig pancreas membranes
# Experiment Description: [125I]BH-CCK8 radioligand binding, guinea pig pancreatic membranes
# Assay Conditions: 37°C for 30 min, read-out: IC₅₀ (nM) [¹²⁵I]-BH-CCK₈ Pancreas
Would you kindly list IC50 for each of these compounds?
Give bare numbers, in nM.

The cases that follow already have their IC50 on record.
INSERT INTO measurements (compound, number) VALUES
  ('CCCCCN(CCCCC)C(=O)[C@@H](Cc1c[nH]c2ccccc12)NC(=O)c1cnc2ccccc2c1 [Example 21]', 14),
  ('C[C@@H](NC(=O)C(Cc1c[nH]c2ccccc12)NC(=O)c1cc2ccccc2[nH]1)c1ccccc1 (stereo partly drawn)', 680),
  ('COC(=O)[C@H](NC(=O)C(Cc1c[nH]c2ccccc12)NC(=O)c1cnc2ccccc2c1)c1ccccc1 (stereo partly drawn)', 300),
  ('CCOC(=O)CN(Cc1ccccc1)C(=O)[C@@H](Cc1c[nH]c2ccccc12)NC(=O)c1cnc2ccccc2c1', 88),
  ('CCCCCN(CCCCC)C(=O)[C@@H](Cc1c[nH]c2ccccc12)NC(=O)C1=C(C)c2ccccc2C1', 750),
  ('COC(=O)[C@@H](NC(=O)C(Cc1c[nH]c2ccccc12)NC(=O)c1cnc2ccccc2c1)c1ccccc1 (stereo partly drawn)', 120);

Hi! Can you tell me IC50 for each of these compounds?
1. CCCCCN(CCCCC)C(=O)[C@@H](Cc1c[nH]c2ccccc12)NC(=O)c1cc(O)c2cccc(O)c2n1
2. CCCCCN(CCCCC)C(=O)[C@H](Cc1c[nH]c2ccccc12)NC(=O)c1cnc2ccccc2c1
3. C[C@H](NC(=O)[C@@H](Cc1c[nH]c2ccccc12)NC(=O)c1cnc2ccccc2c1)c1ccccc1
4. C[C@@H](NC(=O)[C@@H](Cc1c[nH]c2ccccc12)NC(=O)c1cnc2ccccc2c1)c1ccccc1
5. O=C(N[C@H](Cc1c[nH]c2ccccc12)C(=O)NCc1ccccc1)c1cc2ccccc2[nH]1

output:
[5, 670, 380, 110, 420]

Hi! Can you tell me IC50 for each of these compounds?
1. COC(=O)[C@@H](NC(=O)[C@@H](Cc1c[nH]c2ccccc12)NC(=O)c1cnc2ccccc2c1)c1ccc(O)cc1
2. C[C@H](NC(=O)C(Cc1c[nH]c2ccccc12)NC(=O)c1cc2ccccc2[nH]1)c1ccccc1 (stereo partly drawn)

output:
1200
1000

Hi! Can you tell me IC50 for each of these compounds?
1. CCCCCN(CCCCC)C(=O)[C@@H](Cc1c[nH]c2ccccc12)NC(=O)c1ccc2ncccc2c1
2. CCCCCN(CCCCC)C(=O)C(Cc1c[nH]c2ccc(F)cc12)NC(=O)c1cnc2ccccc2c1 (racemic)

output:
1. 180
2. 62

---

# Assay System: CCK receptors (Cavia porcellus)
# Construct: cortex and pancreas were removed and rinsed with ice-cold saline; from tissue; host or cells: guinea pig pancreas membranes
# Experiment Description: Inhibition of CCK8-stimulated amylase release from guinea pig pancreatic acini
# Assay type: cell-based
# Assay Conditions: reference concentration for CCK₈ 3x10⁻¹⁰M, 37°C, 30 min, read-out: IC₅₀ (nM) Inhibition of Amylase Release
Would you kindly list IC50 for each of these compounds?

The cases that follow already have their IC50 on record.
INSERT INTO results (compound, result) VALUES
  ('CCCCCN(CCCCC)C(=O)[C@@H](Cc1c[nH]c2ccccc12)NC(=O)c1cc2ccccc2[nH]1', '670 nM'),
  ('COC(=O)[C@@H](NC(=O)[C@@H](Cc1c[nH]c2ccccc12)NC(=O)c1cc2ccccc2[nH]1)c1ccccc1', '< 10000 nM');

Hi! Can you tell me IC50 for each of these compounds?
1. COC(=O)[C@H](NC(=O)C(Cc1c[nH]c2ccccc12)NC(=O)c1cnc2ccccc2c1)c1ccccc1 (stereo partly shown)
2. C[C@H](NC(=O)[C@@H](Cc1c[nH]c2ccccc12)NC(=O)c1cnc2ccccc2c1)c1ccccc1
3. COC(=O)[C@@H](NC(=O)C(Cc1c[nH]c2ccccc12)NC(=O)c1cnc2ccccc2c1)c1ccccc1 (stereo partly shown)
4. O=C(N[C@H](Cc1c[nH]c2ccccc12)C(=O)NCc1ccccc1)c1cc2ccccc2[nH]1
5. CCCCCN(CCCCC)C(=O)[C@@H](Cc1c[nH]c2ccccc12)NC(=O)c1ccc2cc(O)ccc2c1

output:
["< 100000 nM", "< 10000 nM", "< 30000 nM", "< 10000 nM", "100000 nM"]
